Target: human JAK3 (a.a. 781-1124) (Homo sapiens)
Construct: JAK3 (a.a. 781-1124); His tag (N); made in house; host or cells: insect cells (baculovirus)
Sequence (P52333 781-1124): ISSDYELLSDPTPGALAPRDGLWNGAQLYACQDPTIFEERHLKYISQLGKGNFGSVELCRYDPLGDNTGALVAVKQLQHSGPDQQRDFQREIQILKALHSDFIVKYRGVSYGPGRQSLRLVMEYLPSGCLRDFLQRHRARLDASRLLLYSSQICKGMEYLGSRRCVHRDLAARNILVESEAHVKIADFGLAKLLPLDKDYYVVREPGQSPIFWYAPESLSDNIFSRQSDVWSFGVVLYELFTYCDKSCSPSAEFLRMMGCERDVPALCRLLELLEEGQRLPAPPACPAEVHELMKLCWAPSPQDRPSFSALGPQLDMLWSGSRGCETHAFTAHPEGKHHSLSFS
Test: In vitro JAK kinase assay (HTRF, phosphorylation of a biotinylated peptide), JAK3
Format: biochemical
Conditions: Table B1
pIC50: −log10 of the molar value. Where a name gives a salt, the structure may show the parent alone.
Collected pIC50 values appear next to each entry.
observation-type: pIC50

- molecule: "O=C(NCCN1CCCCC1)Nc1ccc2cc1CCc1cccc(c1)Nc1ncc(Cl)c(n1)N2 [Example B258, bis(trifluoroacetate)]"
  study-system: "human JAK3 (a.a. 781-1124) (Homo sapiens)"
  observation-type: "pIC50"
  result-modifier: "="
  value-reported: 7.08
- molecule: "CS(=O)(=O)N1CC[C@H](NC(=O)Nc2ccc3cc2CCc2cccc(c2)Nc2ncc(Cl)c(n2)N3)C1 [Example B172, trifluoroacetate]"
  study-system: "human JAK3 (a.a. 781-1124) (Homo sapiens)"
  observation-type: "pIC50"
  result-modifier: "="
  value-reported: 7.77
- molecule: "CCOC(=O)c1coc(Nc2ccc3cc2CCc2cccc(c2)Nc2ncc(Cl)c(n2)N3)n1 [Example B278, bis(trifluoroacetate)]"
  study-system: "human JAK3 (a.a. 781-1124) (Homo sapiens)"
  observation-type: "pIC50"
  result-modifier: "="
  value-reported: 5.73
- molecule: "CC(C)NC(=O)NCCNC(=O)Nc1ccc2cc1CCc1cccc(c1)Nc1ncc(Cl)c(n1)N2 [Example B188, trifluoroacetate]"
  study-system: "human JAK3 (a.a. 781-1124) (Homo sapiens)"
  observation-type: "pIC50"
  result-modifier: "="
  value-reported: 7.28
- molecule: "COc1ccccc1C(=O)Nc1ccc2cc1CCc1cccc(c1)Nc1ncc(Cl)c(n1)N2 [Example B36, trifluoroacetate]"
  study-system: "human JAK3 (a.a. 781-1124) (Homo sapiens)"
  observation-type: "pIC50"
  result-modifier: "="
  value-reported: 7.38
- molecule: "CN(Cc1ccc2cc1CCc1cncc(c1)Nc1ncc(Cl)c(n1)N2)CC1CCN(S(=O)(=O)c2ccccc2C#N)CC1 [Example B340, tris(trifluoroacetate)]"
  study-system: "human JAK3 (a.a. 781-1124) (Homo sapiens)"
  observation-type: "pIC50"
  result-modifier: "<"
  value-reported: 6.40
- molecule: "Clc1cccc(N2CCN(Cc3cc4cc(c3)Nc3nc(ncc3Cl)Nc3cccc(c3)CC4)CC2)n1 [Example B217, tris(trifluoroacetate)]"
  study-system: "human JAK3 (a.a. 781-1124) (Homo sapiens)"
  observation-type: "pIC50"
  result-modifier: "="
  value-reported: 6.70
- molecule: "O=C(NCCNS(=O)(=O)c1ccccc1)Nc1ccc2cc1CCc1cccc(c1)Nc1ncc(Cl)c(n1)N2 [Example B329, trifluoroacetate]"
  study-system: "human JAK3 (a.a. 781-1124) (Homo sapiens)"
  observation-type: "pIC50"
  result-modifier: "="
  value-reported: 8.19
- molecule: "Clc1cnc2nc1Nc1ccc(-c3cn[nH]c3)c(c1)CCc1cncc(c1)N2 [Example B350, tris(trifluoroacetate)]"
  study-system: "human JAK3 (a.a. 781-1124) (Homo sapiens)"
  observation-type: "pIC50"
  result-modifier: "<"
  value-reported: 6.40
- molecule: "CN(C(=O)Nc1ccc2cc1CCc1cncc(c1)Nc1ncc(Cl)c(n1)N2)[C@H]1CCNC1 [Example B288, tris(trifluoroacetate)]"
  study-system: "human JAK3 (a.a. 781-1124) (Homo sapiens)"
  observation-type: "pIC50"
  result-modifier: "<"
  value-reported: 6.70
- molecule: "O=C(NCCNS(=O)(=O)c1ccc(Cl)s1)Nc1ccc2cc1CCc1cccc(c1)Nc1ncc(Cl)c(n1)N2 [Example B330, trifluoroacetate]"
  study-system: "human JAK3 (a.a. 781-1124) (Homo sapiens)"
  observation-type: "pIC50"
  result-modifier: "="
  value-reported: 8.15
- molecule: "O=C(Nc1ccccc1Cl)Nc1ccc2cc1CCc1cccc(c1)Nc1ncc(Cl)c(n1)N2 [Example B84, trifluoroacetate]"
  study-system: "human JAK3 (a.a. 781-1124) (Homo sapiens)"
  observation-type: "pIC50"
  result-modifier: "="
  value-reported: 8.01
- molecule: "CCc1ccc(NC(=O)Nc2ccc3cc2CCc2cccc(c2)Nc2ncc(Cl)c(n2)N3)cc1 [Example B98, trifluoroacetate]"
  study-system: "human JAK3 (a.a. 781-1124) (Homo sapiens)"
  observation-type: "pIC50"
  result-modifier: "="
  value-reported: 7.04
